# credit: PubChem BioAssay AID1822

- System: M18 aspartyl aminopeptidase (Plasmodium falciparum 3D7)
- experiment-description: inhibition of P. falciparum M18 aminopeptidase – biochemical, QFRET, recombinant enzyme, primary screen (AID 1822);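 also: 0% = plate median of test compound wells and 100% = 2 mM ZnCl2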
- condition: recombinant PfM18AAP, H-Glu-NHMec fluorogenic cleavage; at 7.35 µM; active compounds read high
The campaign covered roughly 290,000 compounds. About 3,500 (1.2%) were called active. The sample as a whole holds a higher share of actives than the screen did.
measurement-label: inhibition (%)
Quick reminder: number only, in %, skip the unit.

In: Provide measured inhibition value, entry: Cc1ccnc(SCC(N)=O)n1
Out: 3.17

In: Please give measured inhibition of the following entry: COc1cc(CNCc2ccc3c(c2)OCO3)c([N+](=O)[O-])cc1OC
Out: 13.5

In: Identify the reported inhibition for the following entry. CCCCNc1ccc(C(=O)Nc2cccc(C)n2)cc1[N+](=O)[O-]
Out: -6.29

In: Give inhibition for the following molecule: CCOc1ccccc1/C=N/Nc1nc2ccccc2o1
Out: 2.76

In: Identify measured inhibition corresponding to CC1CC(C)CN(CCCNC(=O)c2csc3c2CCCCC3)C1 (configuration not stated)
Out: -10.4

In: Give the reported inhibition for this molecule. CCOC(=O)C1CCN(c2c(Nc3cc(C)cc(C)c3)c(=O)c2=O)CC1
Out: -6.21

In: Supply reported inhibition belonging to this molecule: O=C(C1CCCO1)N1CCN(S(=O)(=O)c2ccc(Br)cc2)CC1 (configuration not stated)
Out: -7.44

In: Provide measured inhibition value, entry: Brc1ccccc1/C=N/Nc1nc2ccccc2o1
Out: -0.38

In: Specify inhibition for COc1ccccc1C(=O)N(C1=NC(C)CS1)c1ccc(Cl)cc1 (configuration not stated) and stop.
Out: -8.55

In: Determine its reported inhibition: Cc1ccnc(-n2sc3ccccc3c2=O)n1
Out: 42

In: Please list inhibition recorded for the molecule O=C(Nc1cc(N2CCOCC2)ncn1)NC1(C(F)(F)F)Oc2ccc(Cl)cc2O1 (configuration not stated)
Out: 89.4

In: Specify inhibition for COc1cc(NC(=O)C2=CC(c3ccco3)=NS(=O)(=O)N2C)cc(OC)c1OC and stop.
Out: 3.32

In: Return reported inhibition. Input molecule: O=[N+]([O-])c1cccc(S(=O)(=O)NCc2ccccn2)c1
Out: -8.77

In: Tell me inhibition reported for S=c1[nH]nc(-c2ccco2)n1/N=C/c1ccc(Br)s1
Out: 28

In: Given O=c1[nH]c2c(c(=O)n1Cc1ccccc1)CCC2 , respond with its inhibition.
Out: -7.19

In: Consider the molecule O=C(Nc1cccc(Cl)c1)C1CCCN(c2cnccn2)C1 (configuration not stated) . State its measured inhibition.
Out: -0.72

In: For the molecule O=c1[nH]n2c(=O)c3c([nH]c2c1N=Nc1ccccc1)CCC3 , report inhibition.
Out: 31.3

In: Using the record for N#Cc1cccc(CSc2ncnc(N)n2)c1 , state its measured inhibition.
Out: 3.53

In: Quick one: give measured inhibition for CC1CCN(C(=O)c2ccc3c(c2)NC(=O)CN3)CC1
Out: 31.9

In: In one line, give reported inhibition of the entry O=C(CSc1nc(Nc2ccccc2)nc(N2CCOCC2)n1)Nc1cc(Cl)ccc1O .
Out: 3.26

In: Complete the entry with inhibition for Cc1ccc(/C=N/NC(=O)CSc2ccccn2)o1
Out: 5.97

In: Using the record for O=C(NC(=S)Nc1ccc(S(=O)(=O)N2CCOCC2)cc1)c1ccccc1[N+](=O)[O-] , state its measured inhibition.
Out: 2.44

In: Output measured inhibition for this item: COC(=O)/C=C\C(=O)Nc1cccc([N+](=O)[O-])c1
Out: -7.77

In: Give the reported inhibition for this molecule. Cc1ccnc(N2CCCC(C(=O)NC3CC3)C2)n1 (configuration not stated)
Out: 0.97

In: Give reported inhibition value for CC1CCN(C(=O)c2ccc(CSc3ccc(Cl)cc3)cc2)CC1
Out: -3.98

In: Annotate the molecule O=S(=O)(c1ccc(NC(=S)NN=C(C2CC2)C2CC2)cc1)N1CCOCC1 with its measured inhibition.
Out: 34.2

In: Specify inhibition for Cc1[nH][nH]c(=O)c1N=Nc1ccccc1 and stop.
Out: -5.94

In: Could you please provide reported inhibition for O=C(Nc1cccc([N+](=O)[O-])c1)Nc1ccc(Cl)cn1 ? Thanks!
Out: -7.59

In: Read off the recorded inhibition for CN1CCN(S(=O)(=O)c2ccc(NC(=S)NC(=O)C3CC3)cc2)CC1
Out: 3.06

In: Tell me its inhibition given O=C(NCCS(=O)(=O)N1CCN(c2ccccc2F)CC1)c1ccc(Br)o1 as the entry.
Out: 0.95

In: State its inhibition for this molecule: Cc1ccc(Sc2cc(N3CCOCC3)nc(-c3ccccc3)n2)cc1
Out: 28.3

In: Determine from records and report inhibition for O=C(CN1C(=O)COc2ccc(Cl)cc21)Nc1ccc(N2CCOCC2)cc1
Out: -12.7

In: Give me measured inhibition, please, for this molecule: Cc1ccc(N2C(=O)C3C4C=CC(CC4)C3C2=O)cc1Br (configuration not stated)
Out: -1.4

In: Answer with the recorded inhibition for the molecule listed here: COCCCNC(=O)CN1C(=O)CSc2ccc(S(=O)(=O)N3CCOCC3)cc21
Out: 6.04

In: Using the record for Cc1cc(N2CCOCC2)nc(-c2ccc(Br)cc2)n1 , state its measured inhibition.
Out: -2.46

In: // Input: CC(C)c1ccc(NC(=S)NC2CC3C=CC2C3)cc1 (configuration not stated) . Output its inhibition only.
Out: -6.48

In: Indicate the recorded inhibition value for this molecule: CCN(c1cccc(C)c1)S(=O)(=O)c1ccc(-c2coc(C)n2)cc1
Out: -0.79

In: Quickly give me recorded inhibition for Cc1ccsc1C(=O)N[C@@H](C)c1nnc2ccccn12
Out: -8.31

In: Give the reported value of inhibition for this record: Cn1c(=O)c([N+](=O)[O-])c(Oc2ccccc2)c2ccccc21
Out: 24

In: Please indicate inhibition recorded for O=C(Nc1cccc([N+](=O)[O-])c1)Nn1cnnc1
Out: 77.4

In: Fill in reported inhibition for this entry: CCc1cc(=O)oc2c(C)c(OCC(=O)NCCN3CCOCC3)ccc12
Out: -0.48

In: Consider the molecule Cc1cc(-c2n[nH]c(=S)n2/N=C/c2ccco2)n[nH]1 and give its recorded inhibition.
Out: 6.34

In: Return value of inhibition for input COc1ccc(/C=N/Nc2nc3ccccc3o2)cc1OC , no commentary.
Out: 56.5

In: # return recorded inhibition for entry N#CCC(=O)N/N=C/c1ccc(SCC(=O)Nc2ccccc2)o1
Out: 34.6

In: Retrieve inhibition measured for COc1cccc(OCC(=O)NNC(=O)c2cnccn2)c1 and print it.
Out: 0.44

In: Give reported inhibition value for COc1ccc(C(=O)NNC(=O)c2cnccn2)cc1[N+](=O)[O-]
Out: 28.7

In: Consider the molecule COc1ccc(C(=O)O/N=C(\N)c2ccccn2)cc1[N+](=O)[O-] and give its recorded inhibition.
Out: -11.1
